Tested on: K562
Assay: NCI tumour cell line growth inhibition, 48 h
The source made the active and inactive calls. No stated cut-off is given here; in the data, active = GI50 up to about 1.1 µM and inactive = higher.
Catalogue of GI50 values

{"COMPOUND": "COc1ccc2c(c1)[n+]([O-])c(C(=O)C/C(=N/NC(=O)C[N+](C)(C)C)C(=O)Nc1cccc(C)c1C)c(C)[n+]2[O-]", "ASSAYED_SYSTEM": "K562", "READOUT_KIND": "GI50", "VALUE_REPORTED": "> 100 µM (inactive)"}
{"COMPOUND": "CCCCCCC/C=C1\\CCC(CN(C)C)C1=O (stereo not drawn)", "ASSAYED_SYSTEM": "K562", "READOUT_KIND": "GI50", "VALUE_REPORTED": "2.83 µM (inactive)"}
{"COMPOUND": "COC(=O)c1c(CC#N)cccc1CC#N", "ASSAYED_SYSTEM": "K562", "READOUT_KIND": "GI50", "VALUE_REPORTED": "> 100 µM (inactive)"}
{"COMPOUND": "CC(=O)c1cc(I)c(O)c2ncccc12", "ASSAYED_SYSTEM": "K562", "READOUT_KIND": "GI50", "VALUE_REPORTED": "7.55 µM (inactive)"}
{"COMPOUND": "C=CCn1c(=S)sc2c(O)ncnc21", "ASSAYED_SYSTEM": "K562", "READOUT_KIND": "GI50", "VALUE_REPORTED": "> 100 µM (inactive)"}

Request: Requested read-out GI50, target or system K562, entry COC(=O)C1C2CCCN2OC1(C)CO (stereo not drawn)
Response: > 100 µM (inactive)

Request: Please give the result for `O=[N+]([O-])c1ccc(Nc2nc3ccccc3s2)cc1` too.
Response: 12.2 µM (inactive)

Request: // query: `CSc1nc(NC(=O)O)c(N(C(C)=O)C(=O)O)c(=O)n1C`
Response: > 100 µM (inactive)

This collection of values is drawn from ChEMBL document CHEMBL1201862.
